So I've got a bunch of molecules here, and I need their inhibition at 1 µM values.
biological target: human recombinant serotonin (5-Hydroxytryptamine) 5-HT6 receptor (Homo sapiens); construct: expressed in transfected cells; host or cells: human HeLa cells; assay: Serotonin 5-HT6 radioligand binding ([3H]LSD); conditions: read-out: Serotonin 5-HT6, inhibition of ligand binding (1 μM)
Sequence (P50406 whole entry): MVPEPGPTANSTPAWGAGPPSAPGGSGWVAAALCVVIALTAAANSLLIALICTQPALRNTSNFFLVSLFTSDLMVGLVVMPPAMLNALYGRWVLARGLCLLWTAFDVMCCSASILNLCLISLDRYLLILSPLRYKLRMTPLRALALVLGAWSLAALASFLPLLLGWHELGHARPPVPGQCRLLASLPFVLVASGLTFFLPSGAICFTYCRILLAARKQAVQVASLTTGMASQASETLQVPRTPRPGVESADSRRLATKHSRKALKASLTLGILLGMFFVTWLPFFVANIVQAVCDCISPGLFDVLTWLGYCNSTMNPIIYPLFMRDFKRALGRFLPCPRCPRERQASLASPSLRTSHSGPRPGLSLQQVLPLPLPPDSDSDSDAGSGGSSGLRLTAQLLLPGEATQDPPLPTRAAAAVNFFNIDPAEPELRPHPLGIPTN
The response must be a number in % with no trailing unit.

What does the record list as inhibition at 1 µM for Cc1ccc(CCn2c3c(c4ccccc42)C2CCC(C3)N2C)cn1 (stereo not drawn) [Compound 92] ?
3

What does the record list as inhibition at 1 µM for Cc1ccc(CCCn2c3c(c4cc(Cl)ccc42)C2CCC(C3)N2C)cn1 (stereo not drawn) [Compound 38] ?
17

What does the record list as inhibition at 1 µM for COc1ccc(C#Cn2c3c(c4cc(C)ccc42)C2CCC(C3)N2C)cc1F (stereo not drawn) [Compound 155] ?
49

What does the record list as inhibition at 1 µM for CN1[C@H]2CC[C@@H]1c1c(n(CCc3ccc(F)cc3)c3ccc(F)cc13)C2 [Compound 95] ?
41

What does the record list as inhibition at 1 µM for Cc1ccc(CCn2c3c(c4ccccc42)[C@@H]2CC[C@H](C3)N2C)cn1 [Compound 102] ?
-5

What does the record list as inhibition at 1 µM for CCOC(=O)CCn1c2c(c3cc(Cl)ccc31)C1CCC(C2)N1C (stereo not drawn) [Compound 70] ?
3

What does the record list as inhibition at 1 µM for C/C(=C\n1c2c(c3cc(C)ccc31)C1CCC(C2)N1C)c1ccccc1F (stereo not drawn) [Compound 164] ?
57

What does the record list as inhibition at 1 µM for Cc1ccc2c(c1)c1c(n2CCc2ccc(F)cc2)CC2CCC1N2C (stereo not drawn) [Compound 62] ?
71

What does the record list as inhibition at 1 µM for CN1C2CCC1c1c(n(CC(=O)c3ccccc3)c3ccc(Cl)cc13)C2 (stereo not drawn) [Compound 110] ?
48

---

molecular target: human recombinant serotonin (5-Hydroxytryptamine) 5-HT7 receptor (Homo sapiens); construct: expressed in transfected cells; host or cells: CHO cells; experiment: Serotonin 5-HT7 radioligand binding ([3H]LSD); conditions: read-out: Serotonin 5-HT7, inhibition of ligand binding (1 μM)
Sequence (P34969 whole entry): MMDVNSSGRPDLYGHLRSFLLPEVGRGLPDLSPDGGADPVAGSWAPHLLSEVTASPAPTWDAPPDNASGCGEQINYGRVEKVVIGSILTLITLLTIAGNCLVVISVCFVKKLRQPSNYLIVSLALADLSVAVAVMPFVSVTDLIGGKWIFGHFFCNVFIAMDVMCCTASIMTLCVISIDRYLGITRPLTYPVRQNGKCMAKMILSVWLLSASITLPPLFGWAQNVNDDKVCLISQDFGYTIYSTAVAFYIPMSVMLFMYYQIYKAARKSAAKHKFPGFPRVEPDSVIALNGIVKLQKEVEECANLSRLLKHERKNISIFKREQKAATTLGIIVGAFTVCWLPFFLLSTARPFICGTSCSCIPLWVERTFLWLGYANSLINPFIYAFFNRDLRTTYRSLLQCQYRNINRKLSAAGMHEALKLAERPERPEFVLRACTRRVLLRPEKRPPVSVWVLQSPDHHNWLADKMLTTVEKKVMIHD
So I've got a bunch of molecules here, and I need their inhibition at 1 µM values.
The response must be a number in % with no trailing unit.

Recorded inhibition at 1 µM for Cc1ccc2c(c1)c1c(n2C#Cc2ccc(F)cc2)CC2CCC1N2C (stereo not shown) with human recombinant serotonin (5-Hydroxytryptamine) 5-HT7 receptor (Homo sapiens), please?
48

Recorded inhibition at 1 µM for C/C(=C\n1c2c(c3cc(C)ccc31)C1CCC(C2)N1C)c1ccccc1F (stereo not shown) with human recombinant serotonin (5-Hydroxytryptamine) 5-HT7 receptor (Homo sapiens), please?
96

Recorded inhibition at 1 µM for C/C(=C\n1c2c(c3cc(C)ccc31)C1CCC(C2)N1C)c1ccc(F)cc1 (stereo not shown) with human recombinant serotonin (5-Hydroxytryptamine) 5-HT7 receptor (Homo sapiens), please?
91

Recorded inhibition at 1 µM for C/C(=C\n1c2c(c3cc(Cl)ccc31)C1CCC(C2)N1C)c1ccc(Cl)c(Cl)c1 (stereo not shown) with human recombinant serotonin (5-Hydroxytryptamine) 5-HT7 receptor (Homo sapiens), please?
81

---

target: human recombinant dopamine D2L receptor (Homo sapiens); construct: expressed in transfected cells; host or cells: CHO cells; experiment: Dopamine D2L radioligand binding ([3H]Spiperone); conditions: read-out: Dopamine (1 μM) D2L, inhibition of ligand binding
Sequence (P14416 whole entry): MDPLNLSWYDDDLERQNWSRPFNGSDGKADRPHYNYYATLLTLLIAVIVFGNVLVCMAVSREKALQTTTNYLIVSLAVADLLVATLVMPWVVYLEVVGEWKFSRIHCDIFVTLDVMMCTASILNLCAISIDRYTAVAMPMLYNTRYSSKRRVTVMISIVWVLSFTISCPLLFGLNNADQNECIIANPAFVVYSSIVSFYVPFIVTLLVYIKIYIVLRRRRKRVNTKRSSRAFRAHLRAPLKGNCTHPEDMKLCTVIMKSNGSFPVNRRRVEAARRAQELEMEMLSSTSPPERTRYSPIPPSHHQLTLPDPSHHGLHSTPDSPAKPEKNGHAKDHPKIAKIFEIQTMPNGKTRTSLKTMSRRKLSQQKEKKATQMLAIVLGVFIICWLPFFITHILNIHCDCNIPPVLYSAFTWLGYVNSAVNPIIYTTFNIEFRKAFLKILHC
So I've got a bunch of compounds here, and I need their inhibition at 1 µM values.
The response must be a number in % with no trailing unit.

What does the record list as inhibition at 1 µM for COc1ccc(CCn2c3c(c4cc(C)ccc42)C2CCC(C3)N2C)cc1 (centres unmarked) ?
12

What does the record list as inhibition at 1 µM for Cc1ccc2c(c1)c1c(n2CC(O)c2ccc(C)nc2)CC2CCC1N2C (centres unmarked) ?
-5

What does the record list as inhibition at 1 µM for CN1C2CCC1c1c(n(CCc3ccc(F)cc3)c3ccc(F)cc13)C2 (centres unmarked) ?
67

What does the record list as inhibition at 1 µM for CN1[C@@H]2CC[C@H]1c1c(n(CC(=O)N3CCCCC3)c3ccccc13)C2 ?
10

What does the record list as inhibition at 1 µM for CN1C2CCC1c1c(n(CCC#N)c3ccc(Cl)cc13)C2 (centres unmarked) ?
-5

---

molecular target: human recombinant serotonin (5-Hydroxytryptamine) 5-HT2C receptor (Homo sapiens, UniProt P28335); construct: expressed in transfected cells; host or cells: CHO-K1 cells; experiment: Serotonin 5-HT2C radioligand binding ([3H]Mesulergine); settings: read-out: Serotonin 5-HT2C, inhibition of ligand binding (1 μM)
Sequence (P28335 33-458): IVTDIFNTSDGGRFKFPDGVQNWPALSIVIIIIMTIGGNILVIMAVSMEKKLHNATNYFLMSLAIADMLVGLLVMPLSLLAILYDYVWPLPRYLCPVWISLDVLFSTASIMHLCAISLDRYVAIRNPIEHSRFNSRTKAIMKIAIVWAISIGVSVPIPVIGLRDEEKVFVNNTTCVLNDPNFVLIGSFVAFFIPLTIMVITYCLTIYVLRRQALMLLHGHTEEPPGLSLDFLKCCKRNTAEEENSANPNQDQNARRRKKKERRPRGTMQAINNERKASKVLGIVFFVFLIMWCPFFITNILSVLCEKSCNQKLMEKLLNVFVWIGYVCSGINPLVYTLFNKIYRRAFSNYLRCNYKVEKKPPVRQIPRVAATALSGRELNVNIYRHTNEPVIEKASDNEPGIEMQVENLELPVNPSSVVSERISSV
QUANTITY MEASURED: inhibition at 1 µM (%)
The response must be a number in % with no trailing unit.

What does the record list as inhibition at 1 µM for Cc1ccc(CCn2c3c(c4cc(Cl)ccc42)C2CCC(C3)N2C)cc1 (stereo not shown) [Compound 61] ?
86

What does the record list as inhibition at 1 µM for CN1C2CCC1c1c(n(C#Cc3ccc(Cl)cc3)c3ccc(Cl)cc13)C2 (stereo not shown) [Compound 142] ?
100

What does the record list as inhibition at 1 µM for Cc1ccc2c(c1)c1c(n2C#Cc2ccc(F)cc2)CC2CCC1N2C (stereo not shown) [Compound 141] ?
89

What does the record list as inhibition at 1 µM for C/C(=C/n1c2c(c3ccccc31)[C@@H]1CC[C@H](C2)N1C)c1ccc(F)cc1 [Compound 121] ?
88

---

molecular target: human recombinant histamine H1 receptor (Homo sapiens); construct: expressed in transfected cells; host or cells: CHO cells; assay: Histamine H1 radioligand binding ([3H]Pyrilamine); conditions: compound at 1 μM; inhibition of specific [3H]Pyrilamine binding; read-out: Histamine Binding (1 μM) H1, Percentage Inhibition
Sequence (P35367 whole entry): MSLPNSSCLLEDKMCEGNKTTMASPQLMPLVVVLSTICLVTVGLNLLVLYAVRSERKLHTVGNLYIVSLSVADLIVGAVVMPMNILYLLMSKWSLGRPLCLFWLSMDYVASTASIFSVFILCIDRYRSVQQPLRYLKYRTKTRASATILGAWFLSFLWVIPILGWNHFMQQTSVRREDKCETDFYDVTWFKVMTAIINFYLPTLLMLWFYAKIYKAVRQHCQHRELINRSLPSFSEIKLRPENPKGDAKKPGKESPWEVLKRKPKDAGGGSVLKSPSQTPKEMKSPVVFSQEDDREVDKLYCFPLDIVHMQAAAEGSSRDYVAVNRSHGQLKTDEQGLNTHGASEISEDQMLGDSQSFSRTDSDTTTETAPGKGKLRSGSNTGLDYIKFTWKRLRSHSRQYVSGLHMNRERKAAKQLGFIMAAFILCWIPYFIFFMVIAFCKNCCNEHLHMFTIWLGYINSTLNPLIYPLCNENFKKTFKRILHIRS
Where inhibition at 1 µM equals or exceeds 20%, the correct label is yes; where it does not, the label is no.

Would you say CC(=O)N1CCN(C(=O)CCn2c3c(c4cc(Cl)ccc42)C2CCC(C3)N2C)CC1 (centres unmarked) [Compound 8] shows inhibition at 1 µM at minimum 20%?
no

Would you say Cc1ccc2c(c1)c1c(n2C(=O)Cc2ccc(Cl)cc2)CC2CCC1N2C (centres unmarked) [Compound 162] shows inhibition at 1 µM at minimum 20%?
no

Would you say CN1C2CCC1c1c(n(CCC(=O)O)c3ccc(Cl)cc13)C2 (centres unmarked) [Compound 72] shows inhibition at 1 µM at minimum 20%?
no

Would you say COc1ccc(C#Cn2c3c(c4cc(Cl)ccc42)C2CCC(C3)N2C)cc1F (centres unmarked) [Compound 154] shows inhibition at 1 µM at minimum 20%?
yes

Would you say Cc1ccc(CCn2c3c(c4cc(Cl)ccc42)C2CCC(C3)N2C)cn1 (centres unmarked) [Compound 79] shows inhibition at 1 µM at minimum 20%?
yes

---

So I've got a bunch of compounds here, and I need their inhibition at 1 µM values.
biological target: human recombinant adrenergic α1D receptor (Homo sapiens); construct: expressed in transfected cells; host or cells: HEK-293 cells; experiment: Adrenergic α1D radioligand binding ([3H]Prozosin); conditions: 1 μM; read-out: Adrenergic α1D, inhibition of ligand binding (1 μM)
Sequence (P25100 whole entry): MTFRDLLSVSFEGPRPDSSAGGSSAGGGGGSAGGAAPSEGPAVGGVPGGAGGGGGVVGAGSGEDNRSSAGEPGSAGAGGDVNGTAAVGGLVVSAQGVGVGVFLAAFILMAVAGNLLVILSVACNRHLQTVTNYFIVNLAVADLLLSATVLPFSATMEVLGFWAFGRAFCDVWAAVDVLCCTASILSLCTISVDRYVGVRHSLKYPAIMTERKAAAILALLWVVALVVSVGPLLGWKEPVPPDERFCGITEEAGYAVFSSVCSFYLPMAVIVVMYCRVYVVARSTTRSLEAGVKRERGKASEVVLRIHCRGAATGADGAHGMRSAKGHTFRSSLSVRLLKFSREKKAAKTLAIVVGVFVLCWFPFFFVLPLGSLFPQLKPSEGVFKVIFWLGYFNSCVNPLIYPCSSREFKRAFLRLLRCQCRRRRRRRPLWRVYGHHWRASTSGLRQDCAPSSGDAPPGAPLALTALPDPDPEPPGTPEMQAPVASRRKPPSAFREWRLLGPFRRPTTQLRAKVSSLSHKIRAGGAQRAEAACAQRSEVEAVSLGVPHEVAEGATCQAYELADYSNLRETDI

What does the record list as inhibition at 1 µM for CN1C2CCC1c1c(n(CCc3ccc(C(F)(F)F)nc3)c3ccc(Cl)cc13)C2 (centres unmarked) ?
61%

What does the record list as inhibition at 1 µM for Cc1ccc2c(c1)c1c(n2CCc2nc(-c3ccccc3)cs2)CC2CCC1N2C (centres unmarked) ?
68%

What does the record list as inhibition at 1 µM for Cc1ccc(CCn2c3c(c4cc(Cl)ccc42)C2CCC(C3)N2C)cc1 (centres unmarked) ?
80%

What does the record list as inhibition at 1 µM for Cc1ccc2c(c1)c1c(n2C#Cc2ccc(F)cc2)CC2CCC1N2C (centres unmarked) ?
20%

What does the record list as inhibition at 1 µM for CN1C2CCC1c1c(n(CCc3ccc(F)cc3)c3ccc(F)cc13)C2 (centres unmarked) ?
78%

What does the record list as inhibition at 1 µM for C/C(=C\n1c2c(c3cc(C)ccc31)C1CCC(C2)N1C)c1ccc(Cl)cc1Cl (centres unmarked) ?
53%

What does the record list as inhibition at 1 µM for CN1C2CCC1c1c(n(CCC(=O)N3CCS(=O)(=O)CC3)c3ccc(Cl)cc13)C2 (centres unmarked) ?
-11%

What does the record list as inhibition at 1 µM for CN1[C@@H]2CC[C@H]1c1c(n(CCc3ccc(F)cc3)c3ccc(F)cc13)C2 ?
77%

What does the record list as inhibition at 1 µM for C/C(=C\n1c2c(c3cc(Cl)ccc31)C1CCC(C2)N1C)c1ccc(F)cc1 (centres unmarked) ?
79%

What does the record list as inhibition at 1 µM for Cc1ccc2c(c1)c1c(n2CC(=O)N2CCCCC2)CC2CCC1N2C (centres unmarked) ?
-18%

What does the record list as inhibition at 1 µM for Cc1cncc(CCn2c3c(c4cc(C)ccc42)C2CCC(C3)N2C)c1 (centres unmarked) ?
40%

What does the record list as inhibition at 1 µM for Cc1ccc2c(c1)c1c(n2C(=O)Cc2ccc(Cl)cc2)CC2CCC1N2C (centres unmarked) ?
34%

What does the record list as inhibition at 1 µM for C/C(=C\n1c2c(c3cc(Cl)ccc31)C1CCC(C2)N1C)c1ccc(Cl)cc1 (centres unmarked) ?
54%

What does the record list as inhibition at 1 µM for CN1[C@@H]2CC[C@H]1c1c(n(CC(C)(O)c3ccc(F)cc3)c3ccccc13)C2 (some centres unmarked) ?
20%

What does the record list as inhibition at 1 µM for CN1C2CCC1c1c(n(CCc3ccc(Cl)cc3)c3ccc(Cl)cc13)C2 (centres unmarked) ?
74%

What does the record list as inhibition at 1 µM for COc1ccc(C(C)(O)Cn2c3c(c4cc(C)ccc42)C2CCC(C3)N2C)cc1F (centres unmarked) ?
30%

What does the record list as inhibition at 1 µM for CN1[C@@H]2CC[C@H]1c1c(n(CCc3ccc(C(F)(F)F)nc3)c3ccccc13)C2 ?
19%
